assayed system: NK1 receptors (Homo sapiens)
Sequence (P25103 whole entry): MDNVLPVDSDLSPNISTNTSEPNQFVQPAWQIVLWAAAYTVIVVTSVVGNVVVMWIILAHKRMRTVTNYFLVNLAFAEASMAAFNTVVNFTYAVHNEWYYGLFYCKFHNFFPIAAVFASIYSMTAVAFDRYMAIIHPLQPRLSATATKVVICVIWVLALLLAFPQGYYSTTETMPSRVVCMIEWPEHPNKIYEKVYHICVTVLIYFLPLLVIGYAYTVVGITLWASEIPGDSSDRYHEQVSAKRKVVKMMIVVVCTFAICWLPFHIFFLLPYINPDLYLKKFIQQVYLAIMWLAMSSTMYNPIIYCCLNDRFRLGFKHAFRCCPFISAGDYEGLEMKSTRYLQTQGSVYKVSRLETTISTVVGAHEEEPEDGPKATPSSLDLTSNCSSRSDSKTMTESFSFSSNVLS
assay text: Binding of [4,5-3H-Leu10] substance P to human recombinant NK1 receptors expressed in CHO cell membranes
condition description: pIC50 = -log IC50, concentration inhibiting by 50% the specific binding of [4,5-3H] substance P; tested as the free base/salt given in c1
readout: IC50 (µM)
The reply should contain only the number, in µM.

Look over these answered cases.
compound: O=S1(=O)CCN(CCN2CCN(C(COCc3cc(C(F)(F)F)cc(C(F)(F)F)c3)c3ccccc3)CC2)CC1 (racemic)
result number: 0.00794

compound: COC(=O)CN1CCN(C(COCc2cc(Br)cc(I)c2)c2ccccc2)CC1 (racemic)
result number: 0.0631

compound: N#CCCCN1CCN(C(COCc2cc(C(F)(F)F)cc(C(F)(F)F)c2)c2ccccc2)CC1 (racemic)
result number: 0.02

compound: NC(=O)CCCCCN1CCN(C(COCc2cc(C(F)(F)F)cc(C(F)(F)F)c2)c2ccccc2)CC1 (racemic)
result number: 0.00501

compound: NC(=O)CCN1CCN(C(COCc2cc(C(F)(F)F)cc(C(F)(F)F)c2)c2ccccc2)CC1 (stereo not shown)
result number: 0.0158

GET /values?readout=IC50&item= CC(OCC(c1ccccc1)N1CCN(CC(=O)O)CC1)c1cc(C(F)(F)F)cc(C(F)(F)F)c1 (single isomer, unassigned) [Compound 273]
0.00316

What do you have for O=C(O)CCCCCN1CCN(C(COCc2cc(C(F)(F)F)cc(C(F)(F)F)c2)c2ccccc2)CC1 (racemic) ?
0.0158

Another compound to check: `COc1cc(CN2CCN([C@@H](COCc3cc(C(F)(F)F)cc(C(F)(F)F)c3)c3ccccc3)CC2)cc(OC)c1OC`
0.0398

Same question for CC(C)(C)NC(=O)CN1CCN(C(COCc2cc(C(F)(F)F)cc(C(F)(F)F)c2)c2ccccc2)CC1 (racemic) please.
0.0631

Next: O=C(COCCN1CCN(C(COCc2cc(C(F)(F)F)cc(C(F)(F)F)c2)c2ccccc2)CC1)NS(=O)(=O)c1ccccc1 (stereo not shown)
0.0316
